Where do the numbers come from? From paper PMC9774946.

Target: AKR1B1 (aldose reductase) (Homo sapiens)
Assay: aldose reductase inhibitor screening kit, NADPH consumption at […] nm
Assay type: biochemical
reported property: IC50 (µM)
Please reply with the bare figure in µM and do not write the unit itself.

**Query** Give IC50 for COc1ccc(C[C@H]2COC(=O)[C@@H]2Cc2ccc(O[C@@H]3O[C@H](CO)[C@@H](O)[C@H](O)[C@H]3O)c(OC)c2)cc1OC [(−)AR, trans-(−)-arctiin]
**Result** 13.7

###

Molecular target: AKR1B1 (aldose reductase) (Homo sapiens, UniProt P15121)
Assay: aldose reductase inhibitor screening kit (NADPH consumption at […] nm); supported by CETSA in Hs578T and SKOV3 cells
Format: biochemical
reported property: pIC50
Please keep in mind that pIC50 is minus log10 of the molar concentration; only the number is needed.

**Query** Specify pIC50 for COc1ccc(C[C@H]2COC(=O)[C@@H]2Cc2ccc3c(c2)OCO3)cc1OC (racemic) [(±)KU, trans-(±)-kusunokinin] , system AKR1B1 (aldose reductase) (Homo sapiens, UniProt P15121).
**Result** 5.01
